testDescription: AP1 Signaling Pathway (AID 357);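 further: ME-180 reporter cells stimulated with EGF at its EC50 level; on the % scale 0 is the no-effect control and ±100 the full control effect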
conditionDetails: ME-180 (cervical carcinoma) AP-1-bla reporter, EGF-induced, beta-lactamase ratio, 5 h; at 7.69 µM (top of the series) unless noted
Inconclusive results are not listed. Calls of active or inactive are those of the source. The call rests on the fitted dose curve; in most records, active means well fitted curve in either direction with a large enough effect (not every such curve was filed as active); inconclusive means small, poorly fitted or top-dose-only effect, or another doubt; inactive means flat fitted curve, though single readings scatter.
recordedEndpoint: activity change, negative = inhibition

Example entries begin here.
OC[C@@H]1O[C@@H](n2cnc3c(NC4CCCCC4)ncnc32)[C@@H](O)[C@H]1O; -12.8% [at 38 µM] (inactive)
CC[C@H](C)C(=O)O[C@@H]1CCC=C2C=C[C@H](C)[C@@H](CC[C@H]3C[C@@H](O)CC(=O)O3)[C@H]21; -28.7% [at 38 µM] (inactive)
O=c1[nH]c(=S)c2[nH]c(=O)n(-c3ccccc3)c2[nH]1; 12.1% (inactive)
Oc1ccc2ccccc2c1C=NCc1c(O)ccc2ccccc12; -5.07% (inactive)
NCCSCCc1ccccc1; -3.04% (inactive)
COc1ccc(C[C@@H]2C(=O)N[C@H](C)C(=O)N(C)[C@@H]3Cc4ccc(cc4)Oc4cc(ccc4O)C[C@H](C(=O)N[C@@H](C)C(=O)N[C@H](C)C(=O)N2C)N(C)C3=O)cc1; -121% (active)

Q: GET /values?readout=activity change, negative = inhibition&item= `O=C(c1nc2ccc([N+](=O)[O-])cc2[nH]c1=O)[C@@H](O)c1ccc2c(c1)OCO2`
Ans: -1.57% (inactive)

Q: Can you check `O=C1C2[C@@H](c3ccccc3)N[C@@H](c3ccccc3)C1[C@H](c1ccccc1)N[C@H]2c1ccccc1` next?
Ans: -5.02% (inactive)

Q: Can you check `O=C(O)c1ccc(OCc2ccccc2)c(Cl)c1` next?
Ans: -4.15% (inactive)

Q: Can you check `O=C(O)c1nn(-c2ccccc2-c2n[nH]c(=O)[nH]c2=O)c(=O)[nH]c1=O` next?
Ans: 1.66% (inactive)

Q: Can you check `Clc1ccc(CSC2=NCCN2)cc1Cl` next?
Ans: -9.06% (inactive)

Q: Can you check `c1cncc(-c2cc(-c3cc(-c4cccnc4)n[nH]3)[nH]n2)c1` next?
Ans: 4.4% (inactive)

Q: Can you check `O[C@@H](C1=C/C(=C\c2ccncc2)c2ccccc21)c1ccncc1` next?
Ans: 6.34% (inactive)

Q: Can you check `NNC(=O)[C@@H](O)[C@H](O)C(=O)NN` next?
Ans: -1.69% (inactive)

Q: Can you check `NS(=O)(=O)c1ccc(NC(=O)Nc2cccc3ccccc23)cc1` next?
Ans: -4.66% (inactive)

Taken from PubChem BioAssay (NCATS).
